Parameter: Vd. Scope: all listed entries.
Test: clinical
Conditions: human, in vivo
State the value with its unit after it.

Sample answers from the record:
CN(C)C(=N)N=C(N)N [METFORMIN] | 2.45 L/kg
COc1ccc2c(c1)C(=O)N(CCc1ccc(S(=O)(=O)NC(=O)NC3CCCCC3)cc1)C(=O)C2(C)C [GLIQUIDONE] | 0.16 L/kg
CCn1cc(C(=O)O)c(=O)c2cc(F)c(N3CCNCC3)cc21 [NORFLOXACIN] | 2.8 L/kg
O=C(O)c1cc(=O)c2c(OCC(O)COc3cccc4oc(C(=O)O)cc(=O)c34)cccc2o1 [CROMOLYN] | 0.32 L/kg

In: I'd like to know its Vd. The molecule in question is CCCCN1CCCCC1C(=O)Nc1c(C)cccc1C (stereo not given) [BUPIVACAINE]
Out: 0.7 L/kg

###

System: Plasma
Conditions: human
Description: Fraction unbound in human plasma
MEASURE: fu

For orientation, consider the following solved cases.
COCCOC(=O)C1=C(C)NC(C)=C(C(=O)OC(C)C)C1c1cccc([N+](=O)[O-])c1 (stereo not drawn) | 0.05
CC(=O)[C@@]1(O)CC[C@H]2[C@@H]3C[C@H](C)C4=CC(=O)CC[C@]4(C)[C@H]3CC[C@@]21C | 0.1
NNC(=O)c1ccncc1 | 1
C[C@]12C=CC(=O)C=C1CC[C@@H]1[C@@H]2[C@@H](O)C[C@@]2(C)[C@H]1CC[C@]2(O)C(=O)CO | 0.075
CN1CCc2cccc3c2[C@H]1Cc1ccc(O)c(O)c1-3 | 0.5

// switching to the query molecule
In: Form field: reported fu of Cn1c(=O)c2c(ncn2CC(O)CO)n(C)c1=O (stereo not drawn)
Out: 0.6

###

Test system: Plasma
Conditions: human
# label = True if fu >= 0.2 else False

In: In plain terms: is recorded fu at least 0.2 for `C[C@]12CC[C@@H]3c4ccc(O)cc4CC[C@H]3[C@@H]1CC[C@@H]2O` ?
Out: False

In: Item: Cc1ccc(S(=O)(=O)NC(=O)NN2CC3CCCC3C2)cc1 (configuration not stated) [GLICLAZIDE]
Out: False

In: # iterate: `C[C@H]1COc2c(N3CCN(C)CC3)c(F)cc3c(=O)c(C(=O)O)cn1c23.C[C@H]1COc2c(N3CCN(C)CC3)c(F)cc3c(=O)c(C(=O)O)cn1c23.O`
Out: True

###

Experiment: clinical
Conditions: human, in vivo
Consider the following compounds and their measured Vd readings.
Write down the numeric answer in L/kg and omit the unit.

Worked examples follow.
CCC1(CCC(C)C)C(=O)NC(=O)NC1=O | 1.05
Cn1c(=O)c2c(ncn2CC(O)CO)n(C)c1=O (centres undefined) | 0.8
O=C(O)CCCc1ccc(N(CCCl)CCCl)cc1 | 0.29

In: Item under review: `CN[C@@H](C)[C@@H](O)c1ccccc1` . Reported Vd?
Out: 2.84

In: What about this compound? Cc1ccc(S(=O)(=O)NC(=O)NN2CC3CCCC3C2)cc1 (centres undefined) [GLICLAZIDE]
Out: 0.36

In: And the next one, `O=C1NC(=O)C(c2ccccc2)(c2ccccc2)N1` ?
Out: 0.64

In: For `CN1C(C(=O)Nc2ccccn2)=C(O)c2ccccc2S1(=O)=O` then?
Out: 0.14

In: Again, but for `C[C@]12C=CC(=O)C=C1CC[C@H]1[C@@H]3C[C@@H](O)[C@](O)(C(=O)CO)[C@@]3(C)C[C@H](O)[C@@]12F`
Out: 1.76

In: Now the same for COC(=O)C1=C(C)NC(C)=C(C(=O)OCCN(C)Cc2ccccc2)C1c1cccc([N+](=O)[O-])c1 (centres undefined)
Out: 0.98
